# target_or_test_system: T1, full-length untagged human GPNMB expressed on cells (human, UniProt Q14956 23-572)
# T1 sequence: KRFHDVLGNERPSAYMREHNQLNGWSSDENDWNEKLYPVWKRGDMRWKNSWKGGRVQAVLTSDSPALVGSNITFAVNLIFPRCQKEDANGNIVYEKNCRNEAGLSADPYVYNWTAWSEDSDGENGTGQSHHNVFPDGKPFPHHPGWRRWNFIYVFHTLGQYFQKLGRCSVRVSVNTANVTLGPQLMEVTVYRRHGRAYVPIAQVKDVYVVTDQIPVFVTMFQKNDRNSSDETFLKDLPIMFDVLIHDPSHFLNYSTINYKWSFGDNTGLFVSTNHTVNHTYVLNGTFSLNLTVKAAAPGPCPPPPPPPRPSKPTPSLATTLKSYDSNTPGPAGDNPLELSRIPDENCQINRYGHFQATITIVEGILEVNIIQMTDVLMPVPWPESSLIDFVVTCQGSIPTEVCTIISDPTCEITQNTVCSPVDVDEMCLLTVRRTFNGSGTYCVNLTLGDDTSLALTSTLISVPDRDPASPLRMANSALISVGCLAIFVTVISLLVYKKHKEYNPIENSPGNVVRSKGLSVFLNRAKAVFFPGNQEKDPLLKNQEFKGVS
# test_protocol: cell-based or functional assay
result_type: EC50 Lyso Tracker (nM)
Give your result in nM as a bare value.

Examples from the recorded data:
Entry anti-GPNMB antibody GPN-90 (antibody, V domains shown) VH: QVQLQESGPGLVKPSETLSLTCTVSGISITTGNYRWSWIRQPPGKGLEWIGYIDYSGTITYNPSLKQRVTITRDTSKNQFSLELSSVTAADTAVYYCARDLTHWYFDVWGQGTLVTVSS VL: DIVMTQSPDSLAVSLGERATINCKSSRSVDYYGIGFLNWYQQKPGQPPKLLIYATSHQGSGVPDRFSGSGSGTDFTLTISSLQAEDVAVYYCQQQKEVPPTFGGGTKVEIK : reported EC50 Lyso Tracker = ? 1.58

Entry anti-GPNMB antibody GPN-87 (antibody, V domains shown) VH: QVQLQESGPGLVKPSETLSLTCTVSGISITTGNYRWSWIRQPPGKGLEWIGYIDYSGTITYNPSLKSRVTITRDTSKNQFSLELSSVTAADTAVYYCARDLTHWYYDVWGQGTLVTVSS VL: DIVMTQSPDSLAVSLGERATINCKSSRSVDYYGIGFLNWYQQKPGQPPKLLIYATSKQGSGVPDRFSGSGSGTDFTLTISSLQAEDVAVYYCQQQKEVPPTFGGGTKVEIK : reported EC50 Lyso Tracker = ? 1.06

Lab note: next binder to report on.
Entry anti-GPNMB antibody GPN-83 (antibody, V domains shown) VH: QVQLQESGPGLVKPSETLSLTCTVSGISITTGNYRWSWIRQPPGKGLEWIGYIDYSGTITYNPSLKSRVTITRDTSKNQFSLELSSVTAADTAVYYCARDLTHWYFDVWGQGTLVTVSS VL: DIVMTQSPDSLAVSLGERATINCKSSRSVDYYGIGFVNWYQQKPGQPPKLLIYATSIQGSGVPDRFSGSGSGTDFTLTISSLQAEDVAVYYCQQQKEVPPTFGGGTKVEIK : reported EC50 Lyso Tracker = ? 1.17
